target: SMB20 peptide (Homo sapiens, UniProt P14678); assay: ITC
Assay Metric: pKd
Field pKd (float): negative decimal logarithm of the concentration in molar.

Req: Requested read-out: pKd. Entry: FBP21 WW domains (protein) DPSKGRWVEGITSEGYHYYYDLISGASQWEKPEGFQGDLKKTAVKTVWVEGLSEDGFTYYYNTETGESRWEKPDD
Resp: 4.79
